Tested on: AIM+ and AIM− CD4+ T cells from peptide-expanded PBMCs
method: TCRβ CDR3 sequencing (immunoSEQ) of sorted AIM+ and AIM− CD4+ T cells;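 further: genomic DNA from sorted cells as template, amplification bias-controlled two-step multiplex PCR, APOB6 pool at 10 µg/ml per peptide, CD40 blocking antibody added before restimulation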
Format: cell-based, human
applied-conditions: Donor 5; PBMCs expanded 14 days and restimulated 24 h with APOB6
Cut-off 500 on No. of clone-specific productive templates, AIM+ CD4+ T (Total 31354), inclusive. At or above means True; below means False.

INSERT INTO results (substance, label_class) VALUES
  ('CASSLRTGIINEQFF: TCRβ CDR3 clone, TCRBV05-01+TCRBJ02-01, Donor 5', 'False'),
  ('CASSFTYDEQFF: TCRβ CDR3 clone, TCRBV07-09+TCRBJ02-01, Donor 5', 'False'),
  ('CATSDFGKEGDEKLFF: TCRβ CDR3 clone, TCRBV24-01+TCRBJ01-04, Donor 5', 'True'),
  ('CASSPGREPGNTIYF: TCRβ CDR3 clone, TCRBV07-09+TCRBJ01-03, Donor 5', 'False'),
  ('CASRKTGSLYGYTF: TCRβ CDR3 clone, TCRBV27-01+TCRBJ01-02, Donor 5', 'False'),
  ('CATALAGGHEQYF: TCRβ CDR3 clone, TCRBV06-05+TCRBJ02-07, Donor 5', 'True'),
  ('CSAREGALDNSPLHF: TCRβ CDR3 clone, TCRBV20-X+TCRBJ01-06, Donor 5', 'True'),
  ('CASTATESSPLHF: TCRβ CDR3 clone, TCRBV12-03/12-04+TCRBJ01-06, Donor 5', 'False'),
  ('CASSYGGGPPDTQYF: TCRβ CDR3 clone, TCRBV06-06+TCRBJ02-03, Donor 5', 'True'),
  ('CASSQTALYSGNTIYF: TCRβ CDR3 clone, TCRBV19-01+TCRBJ01-03, Donor 5', 'True');

Where do these numbers come from? They come from patent US20260000710A1.
